Target: CDK2/cyclin A (Homo sapiens, UniProt P24941)
Construct: made in house; host or cells: CDK2: insect cells (baculovirus); cyclin A: E. coli, then limited proteolysis
Assay: Inhibition of CDK2/cyclin A retinoblastoma kinase activity
Assay type: biochemical
Conditions: μM; read-out: Ki CDK 2/A
Quantity Measured: Ki (µM)

Reference set, count: 4
INPUT: Data request, read-out Ki, for Cc1c(C(=O)c2sc(Nc3ccc4nc[nH]c4c3)nc2N)ncn1C
OUTPUT: 10.6

INPUT: Next molecule up: Nc1nc(Nc2ccc3nc[nH]c3c2)sc1C(=O)[C@@H]1CCCN1C(=O)OCc1ccccc1
OUTPUT: 42

INPUT: Next molecule up: Nc1nc(Nc2ccccc2)sc1C(=O)C1CC1
OUTPUT: 4.3

INPUT: Next molecule up: Cc1cccc(-c2ccccc2)c1C(=O)c1sc(Nc2ccc3nc[nH]c3c2)nc1N
OUTPUT: 13.2

I. Nc1nc(Nc2ccc(S(N)(=O)=O)cc2)sc1C(=O)[C@@H]1CCCN1C(=O)OCc1ccccc1
II. Cc1cccc(-c2ccccc2)c1C(=O)c1sc(Nc2ccc(N3CCOCC3)cc2)nc1N
INPUT: I'm curious, which of these has a smaller Ki number: I or II ? Give the label under which the chosen entry appears.
OUTPUT: I
(I: 14.3 µM, II: 32 µM)
